# Tested target: T1, human IL-23 (human, UniProt Q9NPF7 20-189; P29460 23-328)
# T1 construct: also called hIL-23; human recombinant IL-23
# T1 sequence (looked up) 1: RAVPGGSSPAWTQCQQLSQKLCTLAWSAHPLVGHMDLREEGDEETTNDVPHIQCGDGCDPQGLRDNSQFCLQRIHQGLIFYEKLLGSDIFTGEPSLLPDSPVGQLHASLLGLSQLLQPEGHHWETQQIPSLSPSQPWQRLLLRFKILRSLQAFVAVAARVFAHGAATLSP
# T1 sequence (looked up) 2: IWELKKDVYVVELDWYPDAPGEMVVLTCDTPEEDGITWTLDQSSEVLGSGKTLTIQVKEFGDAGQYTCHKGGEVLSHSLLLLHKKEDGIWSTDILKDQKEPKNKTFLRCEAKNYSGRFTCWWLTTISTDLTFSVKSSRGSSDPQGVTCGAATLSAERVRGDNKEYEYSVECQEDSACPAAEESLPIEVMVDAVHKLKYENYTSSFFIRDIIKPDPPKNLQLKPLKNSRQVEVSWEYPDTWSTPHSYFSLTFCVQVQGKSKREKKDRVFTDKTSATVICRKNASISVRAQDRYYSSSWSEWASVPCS
# Assay procedure: SPR, Adnectin captured by anti-His mAb, IL-23 injected
Reported property: Kd
Quote the value and follow it with the unit of measurement.

Sample records with Kd:
Binder	Kd
1487D09 (designed binder, captured by anti-His mAb) MGVSDVPRDLEVVAATPTSLLISWGHYPMHIRYYRITYGETGGNSPVQEFTVPRSRHTATISGLKPGVDYTITVYAVTYYNEADYSQIPISINYRTEIDKPSQHHHHHH	1.7 nM
1550C05 (designed binder, captured by anti-His mAb) MGVSDVPRDLEVVAATPTSLLISWGHYPMHVRYYRITYGETGGNSPVQEFTVPPRRYTATISGLKPGVDYTITVYAVTYYNEADYSQIPISINYRTEIDKPSQHHHHHH	2.1 nM

Now consider the entry below.
## Input Fill in: Kd of 1486G03 (designed binder, captured by anti-His mAb) MGVSDVPRDLEVVAATPTSLLISWGHYPMHVRYYRITYGETGGNSPVQEFTVPSRYYTATISGLKPGVDYTITVYAVTYYNEADYSQIPISINYRTEIDKPSQHHHHHH is ___
## Output 4.9 nM
